meta.source: paper PMC5797146

molecular target: T1, Clostridium difficile toxin A (Clostridioides difficile …, UniProt P16154); experiment: SPR; settings: both partners purified
T1 construct: also called TcdA
Below: a set of entries, each annotated with reported koff.
Numeric answer only, unit s⁻¹ assumed.

Example entries and their recorded answers appear below.
A26.8 VHH T56I (VHH, source: E. coli TG1, periplasmic extract, purified (IMAC, SEC)) VHH: QVKLEESGGGLVQAGGSLRLSCAASERTFSRYPVAWFRQAPGAEREFVAVISSTGISTYYADSVKGRFTISRDNAKVTVYLQMNNLKREDTAVYFCAVNSQRTRLQDPNEYDYWGQGTQVTVSS    0.026
A26.8 VHH T103M (VHH, source: E. coli TG1, periplasmic extract, purified (IMAC, SEC)) VHH: QVKLEESGGGLVQAGGSLRLSCAASERTFSRYPVAWFRQAPGAEREFVAVISSTGTSTYYADSVKGRFTISRDNAKVTVYLQMNNLKREDTAVYFCAVNSQRMRLQDPNEYDYWGQGTQVTVSS    0.024
A26.8 VHH Q101K (VHH, source: E. coli TG1, periplasmic extract, purified (IMAC, SEC)) VHH: QVKLEESGGGLVQAGGSLRLSCAASERTFSRYPVAWFRQAPGAEREFVAVISSTGTSTYYADSVKGRFTISRDNAKVTVYLQMNNLKREDTAVYFCAVNSKRTRLQDPNEYDYWGQGTQVTVSS    0.02

## Task State the recorded koff for this entry: A26.8 VHH T56R, Q101K, T103M (VHH, source: E. coli TG1, periplasmic extract, purified (IMAC, SEC)) VHH: QVKLEESGGGLVQAGGSLRLSCAASERTFSRYPVAWFRQAPGAEREFVAVISSTGRSTYYADSVKGRFTISRDNAKVTVYLQMNNLKREDTAVYFCAVNSKRMRLQDPNEYDYWGQGTQVTVSS
## Result 0.03
